# credit: ChEMBL document CHEMBL2429801

Attribute: pIC50
Subject Of Test: Transient receptor potential cation channel subfamily M member 8 (Rattus norvegicus)
Sequence (Q8R455 whole entry): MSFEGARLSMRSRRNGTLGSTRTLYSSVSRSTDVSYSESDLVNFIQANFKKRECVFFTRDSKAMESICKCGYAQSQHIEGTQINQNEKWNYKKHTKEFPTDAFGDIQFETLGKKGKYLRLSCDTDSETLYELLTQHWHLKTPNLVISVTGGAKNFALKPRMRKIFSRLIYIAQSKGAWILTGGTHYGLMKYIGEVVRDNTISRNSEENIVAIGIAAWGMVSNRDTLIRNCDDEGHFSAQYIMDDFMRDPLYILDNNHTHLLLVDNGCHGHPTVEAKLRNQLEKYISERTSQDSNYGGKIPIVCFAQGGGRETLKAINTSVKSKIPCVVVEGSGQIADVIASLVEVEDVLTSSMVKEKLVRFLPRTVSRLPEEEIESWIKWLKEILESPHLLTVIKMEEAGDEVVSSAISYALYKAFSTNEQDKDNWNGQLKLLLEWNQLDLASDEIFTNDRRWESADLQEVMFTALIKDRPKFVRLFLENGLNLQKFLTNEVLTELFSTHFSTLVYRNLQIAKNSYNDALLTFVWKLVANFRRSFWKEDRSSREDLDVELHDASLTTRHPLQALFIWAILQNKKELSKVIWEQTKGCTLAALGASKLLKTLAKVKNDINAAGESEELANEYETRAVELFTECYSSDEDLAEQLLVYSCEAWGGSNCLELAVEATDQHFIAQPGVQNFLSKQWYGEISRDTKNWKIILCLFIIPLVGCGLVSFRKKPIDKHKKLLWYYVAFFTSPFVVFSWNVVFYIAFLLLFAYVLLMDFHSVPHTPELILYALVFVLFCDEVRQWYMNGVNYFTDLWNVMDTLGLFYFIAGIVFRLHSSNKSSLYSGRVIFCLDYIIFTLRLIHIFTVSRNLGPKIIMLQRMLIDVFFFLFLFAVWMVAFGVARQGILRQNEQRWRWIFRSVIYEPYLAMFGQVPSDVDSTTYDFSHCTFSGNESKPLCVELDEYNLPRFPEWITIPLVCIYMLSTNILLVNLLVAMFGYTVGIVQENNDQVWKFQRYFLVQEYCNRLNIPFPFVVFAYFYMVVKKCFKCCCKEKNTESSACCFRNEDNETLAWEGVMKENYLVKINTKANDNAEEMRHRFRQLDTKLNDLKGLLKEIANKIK
Protocol Details: Antagonist activity at rat recombinant TRPM8 overexpressed in HEK293 cells assessed as inhibition of menthol-induced intracellular calcium influx preincubated for 5 mins followed by menthol challenge by Fluo-4-AM dye-based spectrofluorimetric analysis
Assay type: cell-based
pIC50: −log10 of the molar value.
Experimental Readout: pIC50

>>> print(df.to_string())
             structure_smiles_string                           subject_of_test  limit_sign  measured_result
0             C=C1OC(=O)c2cc(F)ccc21  Transient receptor potential cation channel subfamily M member 8 (Rattus norvegicus)           <             3.70
1         C/C=C1\OC(=O)c2ccc(OC)cc21  Transient receptor potential cation channel subfamily M member 8 (Rattus norvegicus)           <             3.70
2      CC/C=C1\OC(=O)c2c(C)cc(C)cc21  Transient receptor potential cation channel subfamily M member 8 (Rattus norvegicus)           =             4.92
3      O=C1O/C(=C\c2ccccc2)c2ccccc21  Transient receptor potential cation channel subfamily M member 8 (Rattus norvegicus)           =             4.99
4  O=C1O/C(=C\c2ccc(Cl)cc2)c2ccccc21  Transient receptor potential cation channel subfamily M member 8 (Rattus norvegicus)           =             4.32

* * *

Readings of EC50 for the listed compounds
Subject Of Test: Transient receptor potential cation channel subfamily A member 1 (Rattus norvegicus, UniProt Q6RI86)
Sequence (Q6RI86 whole entry): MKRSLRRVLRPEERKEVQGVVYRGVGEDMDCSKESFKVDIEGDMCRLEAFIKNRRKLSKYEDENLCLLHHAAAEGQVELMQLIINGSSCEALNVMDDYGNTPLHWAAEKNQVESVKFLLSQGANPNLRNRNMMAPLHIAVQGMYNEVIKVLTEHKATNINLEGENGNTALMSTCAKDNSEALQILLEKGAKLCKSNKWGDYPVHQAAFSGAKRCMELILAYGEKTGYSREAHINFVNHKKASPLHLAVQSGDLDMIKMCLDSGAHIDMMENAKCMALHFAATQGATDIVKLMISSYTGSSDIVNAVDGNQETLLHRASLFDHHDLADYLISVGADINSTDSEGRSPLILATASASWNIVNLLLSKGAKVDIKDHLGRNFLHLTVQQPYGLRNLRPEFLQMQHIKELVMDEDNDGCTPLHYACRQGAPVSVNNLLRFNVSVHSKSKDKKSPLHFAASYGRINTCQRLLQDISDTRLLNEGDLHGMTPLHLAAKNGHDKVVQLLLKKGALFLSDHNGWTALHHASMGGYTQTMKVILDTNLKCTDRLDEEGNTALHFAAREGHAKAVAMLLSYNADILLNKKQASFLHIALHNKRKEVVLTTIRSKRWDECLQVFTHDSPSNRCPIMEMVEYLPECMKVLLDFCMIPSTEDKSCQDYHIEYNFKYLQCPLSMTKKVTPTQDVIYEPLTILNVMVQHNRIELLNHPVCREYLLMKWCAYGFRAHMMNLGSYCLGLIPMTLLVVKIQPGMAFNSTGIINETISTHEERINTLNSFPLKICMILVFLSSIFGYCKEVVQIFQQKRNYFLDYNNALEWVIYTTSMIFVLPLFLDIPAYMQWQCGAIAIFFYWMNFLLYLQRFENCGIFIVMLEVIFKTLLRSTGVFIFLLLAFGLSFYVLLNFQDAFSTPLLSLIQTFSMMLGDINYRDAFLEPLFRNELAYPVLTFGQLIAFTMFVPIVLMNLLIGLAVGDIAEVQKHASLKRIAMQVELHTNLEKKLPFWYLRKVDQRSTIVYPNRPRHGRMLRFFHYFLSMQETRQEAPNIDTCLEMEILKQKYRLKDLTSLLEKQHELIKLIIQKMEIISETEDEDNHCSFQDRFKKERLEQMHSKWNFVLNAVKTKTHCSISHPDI
Protocol Details: Agonist activity at rat recombinant TRPA1 overexpressed in HEK293 cells assessed as induction of intracellular calcium influx by Fluo-4-AM dye-based spectrofluorimetric analysis
Experimental Readout: EC50 (µM)

>>> df
         structure_smiles_string  measured_result
0     C/C=C1\OC(=O)c2ccc(OC)cc21             21.7
1      C=C1OC(=O)c2c(C)cc(C)cc21             17.2
2  O=C1O/C(=C\c2ccccc2)c2ccccc21                3
